Please provide measured EC50 for the entries that follow.
experimental-system: soluble guanylate cyclase (sGC) (Homo sapiens, UniProt Q02108+Q02153)
Construct: endogenously expressing soluble guanylate cyclase (sGC); endogenous in cells; host or cells: HEK293
Sequence (Q02153 whole entry): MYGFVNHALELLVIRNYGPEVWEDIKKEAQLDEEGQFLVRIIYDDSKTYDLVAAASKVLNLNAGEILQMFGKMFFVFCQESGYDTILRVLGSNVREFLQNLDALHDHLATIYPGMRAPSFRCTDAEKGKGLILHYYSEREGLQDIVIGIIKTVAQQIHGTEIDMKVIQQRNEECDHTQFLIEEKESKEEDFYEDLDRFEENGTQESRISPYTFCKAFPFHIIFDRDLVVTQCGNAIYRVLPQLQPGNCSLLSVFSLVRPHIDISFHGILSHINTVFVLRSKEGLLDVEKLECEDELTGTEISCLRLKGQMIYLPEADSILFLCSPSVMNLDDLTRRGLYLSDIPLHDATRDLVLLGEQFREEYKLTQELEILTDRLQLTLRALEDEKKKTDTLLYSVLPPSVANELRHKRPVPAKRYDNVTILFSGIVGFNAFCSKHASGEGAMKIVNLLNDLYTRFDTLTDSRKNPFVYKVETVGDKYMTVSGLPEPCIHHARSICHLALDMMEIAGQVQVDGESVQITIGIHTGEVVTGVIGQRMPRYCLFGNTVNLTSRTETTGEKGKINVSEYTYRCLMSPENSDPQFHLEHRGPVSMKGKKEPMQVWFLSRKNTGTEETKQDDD
Sequence (Q02108 whole entry): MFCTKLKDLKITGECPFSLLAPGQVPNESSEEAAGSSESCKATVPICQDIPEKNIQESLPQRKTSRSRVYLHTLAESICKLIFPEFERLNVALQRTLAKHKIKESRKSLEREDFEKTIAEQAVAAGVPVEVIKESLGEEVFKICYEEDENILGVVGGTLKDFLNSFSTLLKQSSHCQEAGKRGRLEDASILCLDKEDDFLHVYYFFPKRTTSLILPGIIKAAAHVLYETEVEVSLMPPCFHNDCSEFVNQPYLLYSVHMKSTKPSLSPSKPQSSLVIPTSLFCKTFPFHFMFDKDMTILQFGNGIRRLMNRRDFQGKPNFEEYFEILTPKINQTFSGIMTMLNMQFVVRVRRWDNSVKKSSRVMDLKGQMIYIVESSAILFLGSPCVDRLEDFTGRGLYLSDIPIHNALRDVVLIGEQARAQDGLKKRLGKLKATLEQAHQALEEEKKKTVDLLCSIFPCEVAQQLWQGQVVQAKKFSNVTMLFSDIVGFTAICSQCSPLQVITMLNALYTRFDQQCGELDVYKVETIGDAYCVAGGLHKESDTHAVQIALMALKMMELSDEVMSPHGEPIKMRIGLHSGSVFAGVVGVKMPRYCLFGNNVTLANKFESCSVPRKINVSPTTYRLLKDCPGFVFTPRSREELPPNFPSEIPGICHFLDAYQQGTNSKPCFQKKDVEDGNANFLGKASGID
experimental-details: sGC-HEK-cGMP assay with LC/MS detection
Type: cell-based
experimental-setup: HEK293 whole cells, LC/MS detection of cGMP, 10 μM DETA-NONOate; 50% of high control response (30 μM Compound Y); read-out: Absolute EC50 (nM)- binned (~)

Consider the worked cases shown below.
{"compound": "CC(C)OC(=O)CCNc1nc(-c2cc(-c3ccon3)n(Cc3ccccc3F)n2)ncc1F", "EC50": "< 100 nM"}
{"compound": "COC(=O)CCNc1nc(-c2cc(-c3ccon3)n(Cc3ccccc3F)n2)ncc1F", "EC50": "< 100 nM"}
{"compound": "O=S1(=O)Cc2cnc(-c3cc(-c4ccon4)n(Cc4ccccc4F)n3)nc2C1", "EC50": "> 30000 nM"}
{"compound": "CCC(C)(N)C(=O)Nc1ccnc(-c2cc(-c3ccon3)n(Cc3ccccc3F)n2)n1 (centres unmarked)", "EC50": "100 to 1000 nM"}
{"compound": "CC(=O)c1cc(-c2ncc(F)c(NS(=O)(=O)c3ccccc3)n2)nn1Cc1ccccc1F", "EC50": "> 1000 nM"}
{"compound": "Nc1nc(-c2cc(-c3ccon3)n(Cc3ccccc3F)n2)nc(N)c1NS(=O)(=O)CCC(F)(F)F", "EC50": "> 1000 nM"}

Hi team, please reply with EC50 for each item in this list.
1. CC(C)C[C@H](CO)Nc1nc(-c2cc(-c3ccon3)n(Cc3ccccc3F)n2)ncc1F
2. CC(=O)c1cc(-c2ncc(F)c(N3CCNC(C(F)(F)F)C3)n2)nn1Cc1ccccc1F (centres unmarked)

# output
1. < 100 nM
2. 100 to 1000 nM
